These measurements were taken from the supplement of paper PMC8728848.

The following binders are shown together with reported glycan array binding signal (z-score) values.
test.target: Gal(b1-3)GalNAc(b1-4)Gal(b1-4)Glc
assay.details: glycan array binding signal (z-score within array); higher = stronger binding
measurement.setup: glycan notation: IUPAC condensed, linker removed
Shown is part of a subset that was picked to be rich in the strongest signals.

binder	glycan array binding signal (z-score)
HysACBM (Streptococcus pneumoniae), Q54873 (protein) KNLVENGDFGQTEDGSSPWTGSKAQGWSAWVDQKNSADASTRVIEAKDGAITISSHEKLRAALHRMVPIEAKKKYKLRFKIKTDNKIGIAKVRIIEESGKDKRLWNSATTSGTKDWQTIEADYSPTLDVDKIKLELFYETGTGTVSFKDIELVEVADQLS	0.174
Epa7 (Candida glabrata), Q6DTM6_CANGB (protein) MGSSHHHHHHSSGLVPRGSHMKDDYSSFLSNNNLGWTDPTEFPLGCSPNVTTPKNGLSMELYSYDLRKNGSYPCWDAAYLDPNYPRTGYKSHRLLAKVDGVTGNINFYYHATKGCTPEIDHLPASYNYPKPLTMTNFTMLLYGYFKPKVTGYHTFTISADDLLFVNFGAGNAFDCCKRESSADDFGNYQAYAVWGSQTAKDDLTVHLDAGLYYPIRIFFNNREYDAELSLTLKTESDSNPVIDFSDYFYSFDDTKDGCPGLVSYDTS	7.99
Epa3to1 (Candida glabrata) (protein) MGSSHHHHHHSSGLVPRGSHMKRELSSQNPFGYPIGCSPQDVAIIPGLTMELYSYPIVSGTPPNCYDASYVDPEYPRTGYLKRKMVGKSTGVTGNLNYKYSVEKACMVKYGNLPAGYNYNEPLTVSNFTMILYGYFKAQTTGLHTFFVNADDLLYINFGAGNAFDCCKREDSKTKLGEYVAYDIWHVDSSKNKVSLFLEKDLYYPIRMFFNNREYDSSLDLSFSVNGATDQISDFSGYLYSVPDQPDTCPAHIGYDTTCR	5.3
Epa22 (Candida glabrata) (protein) MGSSHHHHHHSSGLVPRGSHMKRALSSQNPFGYPIGCSPQSTNVIPGLTMELYSYPIVSGTPPNCYDASYVDPEYPRTGYLKRKMIGKSTGVTGSLNYKFSVEKACMVKYGNLPAGYNYNEPLTVSNFTMLLYGYFKPQTSGIHTFFVNADDLLYINFGAGNAFDCCKREDSKFKLGEYVAYDIWHVDSSKNKVSLNLEKDVYYPIRMFFNNIGKDSSLDLSFSVNGAVEHITDFSGYLYSVPDQPDACPAPIGYDTTCK	0.34
Na-CTL-1 (Necator americanus) (protein) MQRSFLLLLVVLAGAWAVNTTIPLKLMGGFTPMKYQCVGRVSDIWADVLFLIESSDMITKSGFRQVIAFITATTKKMTIGQDEKQTRVGFITYGEEAKLIYDLDHWRSTEKLSDLVQKIPYVKSSGTNIAAAIALANKVFNSPTHRPNVPKVMVIVANGLKKGSQNPIPVATAFKDFGGIIITIEYTQYDNIQVPILKKIASEGYNIRSNDEDFSVRTLTNMLLQANCFCPDHYVPFRVNNPEFGCFVTAKIPSMWRDAAEMCRAVEEGKLVKVENEEKAAFIMKLVGPKKEAWIGLRYYGNKFQWTDGTKLNADDFNLWPEDIKELNGPHCVSMYQDQKDKKYYWRAGKCLEDMRYVCEVQPCSASNYCSEPVFMYRQKHRALLPAPPPPPN	-0.243
CFEM-CGl (Candida glabrata), Q6FRS0 (protein) VLATPPACLLACVAQVSKQSSQCHTLNQVGCFCENENTAIKNCLDSICPNGNSDAAYTAFKNSCGDVGKAVASV	9.88
Epa1to9 (Candida glabrata) (protein) MGSSHHHHHHSSGLVPRGSHMTSSNDISLASKDPTTFPLGCSPDITTPKKGLSMELYSYDFRKKGSYPCWDAAYLDPNYPRTGYKSHRLLAKVDGVTGNINFYYHATKGCTPQLGHLPASYNYPKPLTMTNFTMLLYGYFRPKVTGFHTFTISADDLLFVNFGAGNAFDCCRRDSSADHFGNYQAYAIWGSKTAKDELTVHLDAGVYYPIRLFYNNRDYHGALSFTFKTESNENTVSDFSEYFFSLDDTEEGCPGLISYD	4.67
Pwp1 (Candida glabrata) (protein) MGSSHHHHHHSSGLVPRGSHMASANPISITNVCQFPDNWARTAGFQATTVRLGLTIASNTYKELLNYPGLFNFATQKATVTQPNFSISGFPFFTGLYGLTVWPINLLVELQGYFVPPESGNYTFTLQGSDDAAILFFANPSTFACGSQNDWPQPREADITVTDTLVPSRTLYLVKGVAYPIRIAYYNGSGDGKLNVSFKDPSGTTHTDWKGYVWQYSNTCSTCTYT	1.92
CBM13 2a (Mycobacterium tuberculosum), P64849 (protein) DGPVQLKSRLGDVCLDAPSGSWFSPLVINPCNGTDFQRWNLTDDRQVESVAFPGECVNIGNALWARLQPCVNWISQHWTVQPDGLVKSDLDACLTVLGGPDPGTWVSTRWCDPNAPDQQWDSVPLEHHHHHH	-0.32
Pwp3 (Candida glabrata) (protein) MGSSHHHHHHSSGLVPRGSHMASKNPVDFTTVCQFPDNFSKKPGFLATTARLGLWITGNSYKELLNYPGTFTLTTQQASTTTPNIQLRGTDLFTTIYGLTVYPLYLLVELQGYFVPTQSGMYTFSLTGSDDAAIIFIGNPSTFPCDAFKTWPQATANDITVTDSINPSRTLYMVKGVAYPLRIAYYNGLGNGVLNAAFTDPSGTKRTDWNGYIWQYDQCSTCTYK	4.7
